Where these numbers come from: patent US11091559B2

Biological target: C-terminal region of human ALK ECD (T637-S1038) (Homo sapiens, UniProt Q9UM73)
Sequence (Q9UM73 19-1620): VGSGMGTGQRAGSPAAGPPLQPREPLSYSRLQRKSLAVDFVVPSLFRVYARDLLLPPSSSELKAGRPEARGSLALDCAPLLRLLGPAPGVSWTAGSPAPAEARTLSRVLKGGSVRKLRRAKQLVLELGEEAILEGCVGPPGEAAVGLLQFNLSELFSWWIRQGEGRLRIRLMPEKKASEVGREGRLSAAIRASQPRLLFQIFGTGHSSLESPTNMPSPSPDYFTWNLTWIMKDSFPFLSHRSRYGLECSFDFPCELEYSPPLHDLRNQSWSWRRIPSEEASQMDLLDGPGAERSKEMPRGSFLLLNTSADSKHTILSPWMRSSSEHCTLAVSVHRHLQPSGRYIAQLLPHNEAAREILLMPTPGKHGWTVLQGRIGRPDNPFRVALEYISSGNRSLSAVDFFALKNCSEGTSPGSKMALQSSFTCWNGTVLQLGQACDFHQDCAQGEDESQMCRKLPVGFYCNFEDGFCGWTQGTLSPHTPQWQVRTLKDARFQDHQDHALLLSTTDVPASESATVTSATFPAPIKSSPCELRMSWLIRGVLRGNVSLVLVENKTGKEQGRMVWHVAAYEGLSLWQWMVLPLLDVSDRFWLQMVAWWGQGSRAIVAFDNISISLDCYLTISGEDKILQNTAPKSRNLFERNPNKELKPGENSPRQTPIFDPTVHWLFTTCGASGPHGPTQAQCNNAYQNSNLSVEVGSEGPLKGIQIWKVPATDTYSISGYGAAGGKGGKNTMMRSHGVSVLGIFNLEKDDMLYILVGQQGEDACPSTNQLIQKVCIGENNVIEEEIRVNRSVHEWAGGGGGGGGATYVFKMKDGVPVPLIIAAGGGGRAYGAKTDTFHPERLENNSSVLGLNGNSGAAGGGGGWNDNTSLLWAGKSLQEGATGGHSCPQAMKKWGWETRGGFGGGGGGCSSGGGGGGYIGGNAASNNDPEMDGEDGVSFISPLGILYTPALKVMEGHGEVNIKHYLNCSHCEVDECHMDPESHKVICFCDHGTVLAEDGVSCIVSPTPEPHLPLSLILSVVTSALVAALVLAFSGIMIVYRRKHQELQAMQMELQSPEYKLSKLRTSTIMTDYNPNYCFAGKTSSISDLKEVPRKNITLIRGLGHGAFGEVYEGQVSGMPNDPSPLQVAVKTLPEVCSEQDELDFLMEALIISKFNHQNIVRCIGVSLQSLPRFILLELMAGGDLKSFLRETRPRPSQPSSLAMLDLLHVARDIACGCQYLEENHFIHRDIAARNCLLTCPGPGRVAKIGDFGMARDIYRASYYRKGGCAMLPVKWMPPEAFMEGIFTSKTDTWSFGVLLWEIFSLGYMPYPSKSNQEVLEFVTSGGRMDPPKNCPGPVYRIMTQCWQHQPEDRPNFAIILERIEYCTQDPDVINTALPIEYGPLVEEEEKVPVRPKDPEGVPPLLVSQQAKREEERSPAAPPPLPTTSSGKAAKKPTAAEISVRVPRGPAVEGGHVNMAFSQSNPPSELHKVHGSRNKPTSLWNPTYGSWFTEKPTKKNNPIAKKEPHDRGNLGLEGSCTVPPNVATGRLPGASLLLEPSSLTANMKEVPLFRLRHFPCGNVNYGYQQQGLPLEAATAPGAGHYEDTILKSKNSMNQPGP
Test: Competitive binding assay (epitope binning) by flow cytometry
Settings: antibodies to the C-terminal region
value.kind: Bin/Domain (bin)
Field format: numeric only.

molecule: Ab326: anti-ALK monoclonal antibody; VL SEQ ID NO: 407, VH SEQ ID NO: 408 (antibody, V domains shown, VH domain - Ab326; VL domain - Ab326) VH: QVQLQQSGAELAKPGASVKLSCKASGYTFTSYWMHWVKQRPGQGLEWIGYIKPSSGYTKYNQKFKDKATLTADKSSSTAYMQLSSLTYEDSAVYYCARDYYGSSSWFAYWGQGTLVTVSA VL: DIVMTQSQRFMSTSVGDRVSVTCKASQNVGTNVAWYQQKPGQSPKALIYSASYRYSGVPDRFTGSGSGTDFTLTISNVQSEDLAEYFCQQYNSYPYMYTFGGGTKLEIKR
value.kind: Bin/Domain (bin)
measured.result: 2

# evaluate next
Incoming: Which value of Bin/Domain (bin) has been reported for Ab320: anti-ALK monoclonal antibody; VL SEQ ID NO: 395, VH SEQ ID NO: 396 (antibody, V domains shown, VH domain - Ab320; VL domain - Ab320) VH: QVQLQQSGAELVKPGASVKISCKASGYAFSSYWMNWVKQRPGKGLEWIGQIYPGDGDTNYNGKFKGKATLTADKSSSTAYMQLSSLTSEDSAVYFCASYYYGSKAYWGQGTLVTVSA VL: DIQMTQSPASLAASVGETVTITCRASENIYYSLAWYQQKQGKSPQLLIYNANSLEDGVPSRFSGSGSGTQYSMKINSMQPEDTATYFCKQAYDVPFTFGSGTKLEIKR in the records?
Outgoing: 1
